Listed here are compounds together with their documented Ki.
SYSTEM_TESTED: HPK1 (Homo sapiens, UniProt Q92918)
Sequence (Q92918 whole entry, looked up): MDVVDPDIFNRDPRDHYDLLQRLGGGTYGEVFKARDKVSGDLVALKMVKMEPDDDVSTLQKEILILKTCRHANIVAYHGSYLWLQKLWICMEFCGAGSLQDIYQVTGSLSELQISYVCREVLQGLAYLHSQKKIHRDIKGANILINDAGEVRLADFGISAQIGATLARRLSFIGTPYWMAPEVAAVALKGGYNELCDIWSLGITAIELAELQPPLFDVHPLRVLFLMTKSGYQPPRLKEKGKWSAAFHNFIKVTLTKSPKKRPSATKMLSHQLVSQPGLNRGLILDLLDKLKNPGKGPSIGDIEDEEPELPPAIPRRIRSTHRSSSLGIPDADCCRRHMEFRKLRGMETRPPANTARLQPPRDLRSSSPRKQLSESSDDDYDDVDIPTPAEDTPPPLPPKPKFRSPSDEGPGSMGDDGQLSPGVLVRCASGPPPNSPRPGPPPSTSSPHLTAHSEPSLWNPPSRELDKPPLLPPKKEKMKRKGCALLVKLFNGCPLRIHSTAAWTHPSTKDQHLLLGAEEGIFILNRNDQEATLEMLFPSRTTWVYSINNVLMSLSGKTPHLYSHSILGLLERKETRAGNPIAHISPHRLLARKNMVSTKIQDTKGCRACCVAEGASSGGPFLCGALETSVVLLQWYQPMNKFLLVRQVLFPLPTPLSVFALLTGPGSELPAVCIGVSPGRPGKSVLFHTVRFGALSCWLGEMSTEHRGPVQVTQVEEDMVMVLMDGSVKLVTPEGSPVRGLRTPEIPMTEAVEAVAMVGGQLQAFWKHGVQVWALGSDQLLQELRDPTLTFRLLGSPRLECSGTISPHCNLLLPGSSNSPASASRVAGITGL
EXPERIMENT_NOTES: HPK1 Lantha Binding Assay ("Lanth")
SETUP_CONDITIONS: Table B1-1, read-out: HPK1 Ki (μM) (Lanth)
Number in nM, nothing else.

Record excerpt, results attached:
N#Cc1ccccc1-c1cc2cc(NC(=O)[C@H]3C[C@@H]3C#N)ncc2c(N)n1 (racemic); 15.2
CC(=O)N1CCC(n2cc(Nc3cc4cc(-c5cnccc5C)nc(N)c4cn3)cn2)C1 (racemic); 0.02
Cc1ccncc1-c1cc2cc(NC(=O)[C@@H]3C[C@H]3c3cn[nH]c3)ncc2c(N)n1 (racemic); 0.0629
CNC(=O)c1c(C)c(-c2cc3cc(NC(=O)[C@H]4C[C@@H]4C#N)ncc3c(N)n2)c(C)n1C (racemic); 44
N#C[C@H]1C[C@@H]1C(=O)Nc1cc2cc(-c3cn[nH]c3C(F)(F)F)nc(N)c2cn1 (racemic); 6.5
Cc1ccncc1-c1cc2cc(NC(=O)[C@H]3[C@@H]4CCC(C#N)[C@@H]43)ncc2c(N)n1 (stereo partly shown); 0.295

// query For the compound shown here, CC(C)c1[nH]ncc1-c1cc2cc(NC(=O)[C@@H]3C[C@H]3C#N)ncc2c(N)n1 (racemic) , give the reported Ki.
// result 2.24

---

SYSTEM_TESTED: HPK1
EXPERIMENT_NOTES: HPK1 Lantha Binding Assay ("Lanth")
SETUP_CONDITIONS: Table B1-1, read-out: HPK1 Ki (μM) (Lanth)
MEASURED_PARAMETER: Ki (nM)
Number in nM, nothing else.

Record excerpt, results attached:
Cc1ccncc1-c1cc2cc(NC(=O)[C@H]3CC[C@H]3C)ncc2c(N)n1 [Compound 321]; 57.4
Cc1ccncc1-c1cc2cc(NC(=O)[C@@H]3CC[C@@H]3C)ncc2c(N)n1 [Compound 323]; 76.3
CCc1ccncc1-c1cc2cc(NCc3ccn[nH]3)ncc2c(N)n1 [Compound 105]; 40.2
Cc1ccncc1-c1nc(N)c2cnc(NC(=O)[C@H]3C[C@@H]3c3cnn(C)c3)cc2c1Cl [Compound 233]; 0.694
Cc1ccncc1-c1cc2cc(Nc3cnn(C(C)(C)C(=O)N(C)C)c3)ncc2c(N)n1 [Compound 183]; 0.98

// query For the compound shown here, Cn1cc([C@H]2C[C@@H]2C(=O)Nc2cc3cc(-c4c(F)cccc4F)nc(N)c3cn2)cn1 (stereo in doubt) [Compound 306] , give the reported Ki.
// result 3.25

// query For the compound shown here, Nc1nc(-c2cnccc2C(F)F)cc2cc(NC(=O)[C@@H]3C[C@@H]3F)ncc12 [Compound 14] , give the reported Ki.
// result 9.46

// query For the compound shown here, CCc1ccncc1-c1cc2cc(NC(=O)C3CC3)ncc2c(N)n1 [Compound 26] , give the reported Ki.
// result 0.21

// query For the compound shown here, Cc1ccnc(-c2ccccc2)c1-c1cc2cc(NC(=O)[C@@H]3C[C@H]3c3cnn(C)c3)ncc2c(N)n1 [Compound 319] , give the reported Ki.
// result 0.02

// query For the compound shown here, Cc1cc(-c2ccccc2)ncc1-c1cc2cc(NC(=O)[C@@H]3C[C@H]3CC#N)ncc2c(N)n1 [Compound 334] , give the reported Ki.
// result 20.4

// query For the compound shown here, Cc1ccccc1-c1cc2cc(NC(=O)[C@@H]3C[C@H]3c3cnn(C)c3)ncc2c(N)n1 [Compound 298] , give the reported Ki.
// result 0.932

// query For the compound shown here, C[C@H]1COC(=O)N1c1cc2cc(NC(=O)[C@@H]3C[C@H]3C#N)ncc2c(N)n1 [Compound 186] , give the reported Ki.
// result 4

---

SYSTEM_TESTED: HPK1 (Homo sapiens, UniProt Q92918)
EXPERIMENT_NOTES: HPK1 Lantha Binding Assay ("Lanth")
SETUP_CONDITIONS: Table B1-1, read-out: HPK1 Ki (μM) (Lanth)
Labelling field: enter Yes if recorded Ki is less than 2 nM. Enter No if it equals or exceeds that cut-off.

Would you please look over these solved cases?
CCc1ccncc1-c1cc2cc(Nc3cc(C(O)CC)ccn3)ncc2c(N)n1 (racemic); Yes
COCCN1CC[C@]2(C[C@@H]2C(=O)Nc2cc3cc(-c4cnccc4C)nc(N)c3cn2)C1 (racemic); No
Cn1cc(-c2cc3cc(NC(=O)[C@H]4C[C@@H]4F)ncc3c(N)n2)cn1 (racemic); Yes
N#C[C@@H]1C[C@H]1C(=O)Nc1cc2cc(-c3cncc4c3CCCC4O)nc(N)c2cn1 (mixture of isomers); No
Cc1ccncc1-c1cc2cc(NC(=O)[C@H]3C[C@]34CCNC4)ncc2c(N)n1 (racemic); No

Please look at the following compound next.
// query Would you kindly verify if Ki of Cc1ccncc1-c1cc2cc(Nc3cnn([C@H]4CCN(C5COC5)C[C@@H]4O)c3)ncc2c(N)n1 (racemic) is strictly less than 2 nM?
// result Yes

---

SYSTEM_TESTED: HPK1
EXPERIMENT_NOTES: HPK1 Lantha Binding Assay ("Lanth")
SETUP_CONDITIONS: Table B1-1, read-out: HPK1 Ki (μM) (Lanth)
Labelling field: enter satisfied if recorded Ki is less than 1 nM. Enter not satisfied if it equals or exceeds that cut-off.

Would you please look over these solved cases?
Cc1ccncc1-c1nc(N)c2cnc(NC(=O)Nc3cnn(C)c3)cc2c1F; not satisfied
Cc1ccncc1-c1cc2cc(NC(=O)[C@H]3[C@H](C)[C@@H]3c3cnn(C)c3)ncc2c(N)n1; not satisfied
Cc1c(N)cncc1-c1cc2cc(NC(=O)[C@@H]3C[C@H]3C#N)ncc2c(N)n1; not satisfied
CCc1c(-c2cnccc2C)nc(N)c2cnc(NC(=O)[C@@H]3C[C@H]3CC#N)cc12 [Compound 272]; satisfied
Cc1ccnc(-c2ccccc2)c1-c1cc2cc(NC(=O)[C@H]3C[C@@H]3c3cnn(C)c3)ncc2c(N)n1; satisfied

// query Would you kindly verify if Ki of `Cc1ccc(C#N)cc1-c1cc2cc(NC(=O)[C@H]3C[C@@H]3c3cnn(C)c3)ncc2c(N)n1` is strictly less than 1 nM?
// result satisfied

// query Would you kindly verify if Ki of `CCc1ccncc1-c1cc2cc(NC(=O)c3cnn(C)c3)ncc2c(N)n1` is strictly less than 1 nM?
// result not satisfied

// query Would you kindly verify if Ki of `Cc1cc(Nc2cc3cc(-c4cnccc4C)nc(N)c3cn2)n(CCO)n1` is strictly less than 1 nM?
// result not satisfied

---

SYSTEM_TESTED: UniProtKB Q92918
EXPERIMENT_NOTES: HPK1 Lantha Binding Assay ("Lanth")
SETUP_CONDITIONS: Table B1-2, read-out: HPK1 Ki, L = Lanth
pKi: −log10 of the molar value.
pKi of 9 or higher: True. Under 9: False.

Cc1cccc(CC#N)c1-c1cc2cc(NC(=O)[C@@H]3C[C@H]3c3cnn(C)c3)ncc2c(N)n1 (single isomer, unassigned); False
Cc1ccnc(Cc2ccccc2)c1-c1cc2cc(NC(=O)[C@@H]3C[C@H]3c3cnn(C)c3)ncc2c(N)n1 (single isomer, unassigned); True
Cc1cccc(Cl)c1-c1cc2cc(NC(=O)[C@H]3C[C@@H]3CC#N)ncc2c(N)n1 (single isomer, unassigned); True

Please look at the following compound next.
// query # bool: pKi of COC(=O)c1cc(C)c(-c2cc3cc(NC(=O)[C@H]4C[C@@H]4c4cnn(C)c4)ncc3c(N)n2)cn1 (single isomer, unassigned) >= 9
// result True

---

SYSTEM_TESTED: UniProtKB Q92918
EXPERIMENT_NOTES: HPK1 Lantha Binding Assay ("Lanth")
SETUP_CONDITIONS: Table B1-2, read-out: HPK1 Ki, L = Lanth
MEASURED_PARAMETER: pKi
Note on pKi: it is the negative log10 of concentration, concentration in mol/L.

Cc1ccncc1-c1cc2cc(NC(=O)C3CC34CC4)ncc2c(N)n1 (centres unmarked); 7.82
Cc1ccc2c(c1-c1cc3cc(NC(=O)[C@H]4C[C@@H]4CC#N)ncc3c(N)n1)CC[C@@]2(C)O (single isomer, unassigned); 7.54
Cc1cc(-c2ccn(C)n2)ncc1-c1cc2cc(NC(=O)[C@H]3C[C@@H]3c3cnn(C)c3)ncc2c(N)n1 (single isomer, unassigned); 8.72
Cc1cc(-n2cccn2)ncc1-c1cc2cc(NC(=O)[C@H]3C[C@@H]3c3cnn(C)c3)ncc2c(N)n1 (single isomer, unassigned); 7.52

Would you kindly look at the next entry?
// query For the compound shown here, Cc1cccc(CC#N)c1-c1cc2cc(NC(=O)[C@H]3C[C@@H]3c3cnn(C)c3)ncc2c(N)n1 (racemic) , give the reported pKi.
// result 7.85

---

SYSTEM_TESTED: HPK1
EXPERIMENT_NOTES: HPK1 Lantha Binding Assay ("Lanth")
SETUP_CONDITIONS: Table B1-1, read-out: HPK1 Ki (μM) (Lanth)
Listed here are compounds together with their documented Ki.
Number in nM, nothing else.

Record excerpt, results attached:
Cc1ccncc1-c1cc2cc(NC(=O)[C@H]3[C@@H]4CN(C5COC5)C[C@@H]43)ncc2c(N)n1; 33.9
COc1ccc(C)c(-c2cc3cc(NC(=O)C4C[C@H]4c4cnn(C)c4)ncc3c(N)n2)c1 (some centres unmarked); 7.39
Cc1ccncc1-c1cc2cc(Nc3cc4n(n3)CC(=O)N(C)CC4)ncc2c(N)n1; 0.02
Cc1ccncc1-c1cc2cc(NCC(F)F)ncc2c(N)n1; 345
Cc1ccncc1-c1cc2cc(Nc3cnn([C@H]4CCN(C)C4=O)c3)ncc2c(N)n1; 0.184
COC(C)(C)C(=O)Nc1cc2cc(-c3cnccc3C)nc(N)c2cn1; 4080

// query For the compound shown here, Cc1ccncc1-c1cc2cc(NC(=O)C3CC34CNC4)ncc2c(N)n1 (centres unmarked) , give the reported Ki.
// result 3.53

// query For the compound shown here, `Cc1ccncc1-c1cc2cc(Nc3cc(C4CC4)n(CCO)n3)ncc2c(N)n1` , give the reported Ki.
// result 146

Provenance of the data: patent US11034692B1
